- tested.on: Aurora kinase A (Homo sapiens)
- assay.setup: Compound concentration 20.0 uM
- Description: Thermal Shift Assay. Domain: start/stop: E122-S403
Non-standard residues stand in square brackets, D forms with d. Residues, ends and D or L forms follow the SMILES beside them. *: point of attachment. Benzoyl(4-tBu) = CC(C)(C)c1ccc(C(=O)*)cc1; Lys(Et2) = CCN(CC)CCCC[C@H](N)C(=O)O; CH2Cl = ClC*
Classification by ΔTm | ranges: Low (below -2 °C), Mid (-2 °C to below -1 °C), High (-1 °C or more)

Textbook exercise: identify the category of the molecule given here, CC(C)NC(=O)c1ccc(OC(F)F)c(OCC2CC2)c1 , according to its measured value.
Low

Textbook exercise: identify the category of the molecule given here, Cn1ncc(-c2nn(C)c3ncnc(N4CCC4)c23)c1-c1ccc(C(F)(F)F)cc1 , according to its measured value.
Low

Which category fits this record: Cc1nc(-c2cnc(NC(C)C)n(C)c2=O)ccc1Oc1ccnc(-c2cnn(C)c2)c1
High

Given CC(=O)N[C@@H](Cc1ccccc1)C(=O)N[C@@H](CC(C)C)C(=O)N[C@H](C(=O)N[C@@H](CC(=O)O)C(=O)CCl)[C@@H](C)O (Ac-FLTD-CH2Cl) , name the class its ΔTm places it in.
High

Entry O=C(C1CC1)N1CCN(Cn2sc3ccccc3c2=O)CC1 belongs to which category?
Mid

Which bin should I file CCN(CC)CCCC[C@H](NC(=O)[C@H](CC(C)C)NC(=O)[C@H](C)NC(=O)[C@H](Cc1ccccc1)NC(=O)c1ccc(C(C)(C)C)cc1)C(=O)N[C@@H](CO)C(=O)OC ({Benzoyl(4-tBu)}-FAL[Lys(Et2)]S-OMe) under?
Mid

In plain terms, what class is COc1ccc(C(=O)C2CCN(CC(=O)N(Cc3nc4c(c(=O)[nH]3)COCC4)CC3CC3)CC2)cc1 ?
Mid

Looking at CSCC[C@H](NC(=O)[C@H](CC(=O)O)NC(C)=O)C(=O)N[C@@H](CCC(N)=O)C(=O)N[C@H](C=O)CC(=O)O (Ac-DMQD-aldehyde) , which class would you pick?
Mid

Assign a bin to CNC(=O)N1CCc2c(c(N3CCCc4cc(-c5cnn(C)c5)c(C(F)F)cc43)nn2C2CCOCC2)C1
Mid

Please classify: Cc1cc(-c2ccc3nc(C4CCOCC4)n(CCOC(F)(F)F)c3c2)cn(C)c1=O
High

Record O=c1c2nnc(C3CCOCC3)n2cc(Br)n1CC1CCCC1 — which class?
Mid

* * *

- tested.on: Bromodomain-containing protein 4 (Homo sapiens)
- assay.setup: Compound concentration 20.0 uM
Residues, ends and D or L forms follow the SMILES beside them. *: point of attachment. CH2Cl = ClC*
Define the label as class 1 when ΔTm is strictly less than -3 °C and as class 0 in all remaining cases.

ΔTm strictly < -3 °C for this molecule? CC/C(=C(/CC)c1ccc(O)cc1)c1ccc(O)cc1
class 1

In the record for COc1ccc(OC)c(-c2nnc3n2N=C(c2ccc(OC)c(OC)c2)CS3)c1 , is ΔTm less than -3 °C?
class 0

Could you please tell me whether ΔTm recorded for O=C(COc1ccc(-c2oc3cc(O)c(C(=O)O)cc3c2C#Cc2cccc(Cl)c2)cc1)NC1CC1 is less than -3 °C?
class 0

Regarding Cc1ncsc1-c1ccc(CNC(=O)[C@@H]2C[C@@H](O)CN2C(=O)[C@@H](NC(=O)COCCOCCOc2ccc(-c3ccc4ncnc(Nc5ccc(OCc6cccc(F)c6)c(Cl)c5)c4c3)cc2)C(C)(C)C)cc1 , kindly confirm whether its ΔTm is beneath -3 °C.
class 0

API: query returns whether the molecule falls strictly under -3 °C in ΔTm. Query: COc1ccc(C(=O)N[C@H](C(=O)N2CCC[C@H]2C(=O)N[C@H](C(=O)C(F)(F)F)C(C)C)C(C)C)cc1
class 0

Given the entry O=C(NCC1(c2nc(-c3ccccc3)cs2)CCOCC1)c1cccc(-c2noc(C(F)(F)F)n2)c1 , would its reported ΔTm be below -3 °C?
class 0

Find out if reported ΔTm for CNC(=O)Cn1cc(-c2ccc3c(c2)[C@H](F)C[C@]32NC(=O)N(CC(=O)N(Cc3ccc(F)cc3)[C@@H](C)C(F)(F)F)C2=O)cn1 is less than -3 °C
class 1

Is it true that ΔTm reported for CC(C)c1cc(C(=O)N2CC[C@@H](NC(=O)C3CC3)C2)[nH]n1 is less than -3 °C?
class 1

Strictly below -3 °C in ΔTm? O=S(=O)(O)c1ccc2cc(/N=N/c3cc(S(=O)(=O)O)c4cccnc4c3O)ccc2c1
class 0

Input CC(=O)N[C@@H](CC(C)C)C(=O)N[C@@H](CCC(=O)O)C(=O)N[C@@H](Cc1cnc[nH]1)C(=O)N[C@@H](CC(=O)O)C(=O)CCl (Ac-LEHD-CH2Cl) ; condition: ΔTm strictly below -3 °C. Does it hold?
class 0

# TODO verify ΔTm < -3 °C strictly for this molecule: Cc1cccc(Nc2ccncc2S(=O)(=O)NC(=O)NC(C)C)c1
class 0

Is -3 °C strictly greater than the molecule's reported ΔTm? molecule: Cc1cc(C)c(-c2[nH]nc(C)c2C)cc1C(=O)N1CC(c2ccc(C#N)cc2)C1
class 1
